tested on: MDA-MB-468 breast; test: NCI tumour cell line growth inhibition, 48 h
Property Measured: GI50

Before answering, review these 5 worked examples.
Field GI50 (entry "COc1ccc2[nH]cc(-c3nc(-c4c[nH]c5ncccc45)cs3)c2c1" ) reads 2.69 µM

"CCOC(=O)C(=Cc1cccc(Cl)c1)C(=O)OCC" yielded GI50 of 1.81 µM

// "O=C1c2c(c3c4cc(Br)ccc4[nH]c3c3ccc4ccccc4c23)C(=O)N1CCN1CCCCC1" : GI50 value = 1.62 µM

# GI50 of "COC12C=C/C(=C(/C(=O)OCc3ccncc3)C(=O)CCCCCCCCC3(OC)C=C/C(=C(/C(=O)OCc4ccncc4)C(=O)CCCCCCCC1)O3)O2" = 0.635 µM

Record "Cn1cc(C2=C(c3cn(C)c4cc(C(N)=O)ccc34)C(=O)NC2=O)c2ccccc21" . Reported GI50: 1.18 µM

Next:
GI50 reading for "Nc1nccc2c1ccn2-c1ccc(NC(=O)c2ccc(N3CCOCC3)c(C(F)(F)F)c2)cc1" : 2.16 µM

# molecule "COc1cc(-c2nn(-c3cccc(NC(=O)Nc4ccc(Cl)c(Cl)c4)c3)cc2-c2ccncc2)ccc1Cl" ; its GI50 = 0.567 µM
